Data provenance: PubChem BioAssay (NCI)

system: DMS 273 small cell lung; assay: NCI tumour cell line growth inhibition, 48 h
ENDPOINT: TGI

{"MOLECULE": "CSc1ccc2c(cc1=O)C(NC(=O)c1ccc(OC(C)=O)cc1)CCc1cc(O)c(O)c(O)c1-2 (stereo unspecified)", "OBSERVED_MEASUREMENT": "47.1 µM"}
{"MOLECULE": "CCN(CC)CCNC(=O)c1cccc2cc3ccccc3nc12", "OBSERVED_MEASUREMENT": "24.3 µM"}
{"MOLECULE": "CC(=O)OC1C(CCl)OC(N=[N+]=[N-])C(OC(C)=O)C1OC(C)=O (stereo unspecified)", "OBSERVED_MEASUREMENT": "> 100 µM"}
{"MOLECULE": "COc1cc2cc[n+]3c4cc(OC)c(OC)cc4c(C)cc3c2cc1OC", "OBSERVED_MEASUREMENT": "> 100 µM"}
{"MOLECULE": "CC(C)(C)[Si](C)(C)O/N=C\\c1ccc(O[Si](C)(C)C(C)(C)C)cc1", "OBSERVED_MEASUREMENT": "> 100 µM"}
{"MOLECULE": "CCOc1ccc(N=Nc2ccc3oc(=O)c(C(=O)Nc4ccc(OC)cc4)cc3c2)cc1", "OBSERVED_MEASUREMENT": "> 100 µM"}
